Reported binning response values are given for each entry in this list.
# experimental.target: Biotinylated CoV2 Spike ECD PreS-AVI protein (SARS-CoV-2, UniProt P0DTC2 14-1208)
# experiment.summary: Octet binning; competitor 11F8
measured.metric: binning response

1. 7A9 VHH-Fc (Fc fusion) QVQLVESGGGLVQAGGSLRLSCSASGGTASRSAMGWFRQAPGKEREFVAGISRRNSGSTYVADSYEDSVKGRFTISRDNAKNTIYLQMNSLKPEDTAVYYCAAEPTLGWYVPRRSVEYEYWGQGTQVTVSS
0.32
2. 8E9 VHH-Fc (Fc fusion) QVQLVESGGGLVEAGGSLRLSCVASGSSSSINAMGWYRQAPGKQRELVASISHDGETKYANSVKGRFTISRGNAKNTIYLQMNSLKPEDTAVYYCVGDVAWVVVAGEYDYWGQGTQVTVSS
0.11
